# target-desc: Keap1 Kelch domain protein (Homo sapiens)
# Sequence (Q14145 321-609 limits assumed): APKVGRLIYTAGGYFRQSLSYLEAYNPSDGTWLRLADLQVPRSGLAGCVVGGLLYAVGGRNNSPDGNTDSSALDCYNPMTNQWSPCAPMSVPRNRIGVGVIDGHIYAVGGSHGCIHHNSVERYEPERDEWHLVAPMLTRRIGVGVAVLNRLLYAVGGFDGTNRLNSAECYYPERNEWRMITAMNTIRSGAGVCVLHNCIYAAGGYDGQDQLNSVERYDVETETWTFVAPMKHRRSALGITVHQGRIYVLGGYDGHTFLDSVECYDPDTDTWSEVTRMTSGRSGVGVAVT
pIC50: −log10 of the molar value.
assay-endpoint: pIC50

compound: COc1ccc(S(=O)(=O)N(CC(=O)O)c2cc(CCCN(C)Cc3ccccc3)c(N(CC(=O)O)S(=O)(=O)c3ccc(OC)cc3)c3ccccc23)cc1 [Compound 24b]
assay-endpoint: pIC50
observed-value: 6.56
